Entry source: ChEMBL document CHEMBL1961873

target: Epidermal growth factor receptor (Homo sapiens) (UniProt P00533); details: at 0.1 µM
Sequence (P00533 whole entry): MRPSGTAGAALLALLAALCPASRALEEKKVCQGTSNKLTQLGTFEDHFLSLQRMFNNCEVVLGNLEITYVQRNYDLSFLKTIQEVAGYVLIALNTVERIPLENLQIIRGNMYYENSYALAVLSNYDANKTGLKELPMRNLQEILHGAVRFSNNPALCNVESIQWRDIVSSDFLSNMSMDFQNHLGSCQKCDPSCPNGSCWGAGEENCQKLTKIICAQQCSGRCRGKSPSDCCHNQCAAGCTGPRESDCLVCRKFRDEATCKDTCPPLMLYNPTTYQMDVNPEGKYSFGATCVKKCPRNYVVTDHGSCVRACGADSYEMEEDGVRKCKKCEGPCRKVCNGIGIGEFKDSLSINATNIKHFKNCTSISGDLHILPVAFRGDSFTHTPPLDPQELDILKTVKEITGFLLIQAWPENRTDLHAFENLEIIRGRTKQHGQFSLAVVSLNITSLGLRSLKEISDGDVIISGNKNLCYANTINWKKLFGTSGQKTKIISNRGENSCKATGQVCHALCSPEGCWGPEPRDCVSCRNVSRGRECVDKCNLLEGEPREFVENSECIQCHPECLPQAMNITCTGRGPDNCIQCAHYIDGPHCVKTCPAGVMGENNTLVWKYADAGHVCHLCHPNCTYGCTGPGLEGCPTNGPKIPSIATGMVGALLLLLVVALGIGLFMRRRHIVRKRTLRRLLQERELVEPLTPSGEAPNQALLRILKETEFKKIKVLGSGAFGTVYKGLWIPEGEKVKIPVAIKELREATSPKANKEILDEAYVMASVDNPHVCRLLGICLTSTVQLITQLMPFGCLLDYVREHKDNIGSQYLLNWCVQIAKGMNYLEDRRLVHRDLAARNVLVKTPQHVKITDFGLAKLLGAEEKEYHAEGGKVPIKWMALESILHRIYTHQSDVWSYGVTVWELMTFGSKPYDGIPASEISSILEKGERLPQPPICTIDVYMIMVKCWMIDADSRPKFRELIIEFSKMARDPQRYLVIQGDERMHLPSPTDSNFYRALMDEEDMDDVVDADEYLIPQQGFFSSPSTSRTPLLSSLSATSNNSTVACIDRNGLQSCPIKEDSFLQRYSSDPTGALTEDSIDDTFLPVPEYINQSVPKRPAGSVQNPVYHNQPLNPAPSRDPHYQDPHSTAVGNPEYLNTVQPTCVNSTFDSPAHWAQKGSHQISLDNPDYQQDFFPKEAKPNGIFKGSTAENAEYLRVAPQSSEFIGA
Description: GSK_PKIS: EGFR mean inhibition at 0.1 uM [Nanosyn]
valueKind: inhibition

# annotated cases, reported inhibition shown
- smilesCode: "c1ccc(-c2n[nH]cc2-c2ccnc(-c3ccc(OCCn4ccnc4)cc3)c2)nc1"
  valueKind: "inhibition"
  experimentalResult: "0.25%"
- smilesCode: "O=C(O[C@H]1CN[C@H](C#Cc2cc3ncnc(Nc4ccc5c(ccn5Cc5cc(F)ccc5F)c4)c3s2)C1)N1CCOCC1"
  valueKind: "inhibition"
  experimentalResult: "65.5%"
- smilesCode: "COc1cc(N2CCN(C(C)C)CC2)ccc1Nc1nc(Nc2cccc3ncccc23)c2cc[nH]c2n1"
  valueKind: "inhibition"
  experimentalResult: "1.36%"
- smilesCode: "CN(C)CCNC(=O)Nc1ccc(N(C)c2ccnc(Nc3ccc(CS(C)(=O)=O)cc3)n2)cc1"
  valueKind: "inhibition"
  experimentalResult: "1.32%"
- smilesCode: "CCN1CCC(C(=O)Nc2n[nH]c3nnc(-c4cccc(F)c4F)cc23)CC1"
  valueKind: "inhibition"
  experimentalResult: "1.21%"
- smilesCode: "COc1ccccc1-c1cc(/C=C2\\C(=O)Nc3ncc(Br)cc32)cc(Br)c1O"
  valueKind: "inhibition"
  experimentalResult: "-0.76%"
- smilesCode: "NS(=O)(=O)c1cccc(N/C=C2\\C(=O)Nc3ccccc32)c1"
  valueKind: "inhibition"
  experimentalResult: "5.8%"
- smilesCode: "CNC(=O)c1cncc(/C=C/c2ccccc2C)c1"
  valueKind: "inhibition"
  experimentalResult: "1.22%"

Next item in the queue.
Qu. Quick one: inhibition of COc1ccc(-c2nn3ncccc3c2-c2ccnc(Nc3ccc(F)c(F)c3)n2)cc1 ?
Ans. 1.6%

---

molecular target: Serine/threonine-protein kinase MRCK beta (Homo sapiens); conditions: at 0.1 µM;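 further: values are mean percent inhibition of MRCKB, screened as part of the GSK PKIS kinase inhibitor set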
Can you tell me inhibition for the items I'm about to list?
One number for each entry, in %.

Hi, could you look up inhibition for each item in my list?
1. Cn1c(-c2nonc2N)nc2cnccc21
2. COC(=O)Nc1nc2cc(Oc3ccc(NC(=O)Nc4ccccc4)cc3)ccc2[nH]1
3. COc1cc(N2CCN(C(C)C)CC2)ccc1Nc1nc(Nc2cccc3ncccc23)c2cc[nH]c2n1
4. c1ccc(-c2n[nH]cc2-c2ccnc(-c3ccc(OCCn4ccnc4)cc3)c2)nc1

Ans.
1. 3.02
2. -0.1
3. 0.85
4. 1.02

---

molecular target: MAP kinase-activated protein kinase 2 (Homo sapiens) (UniProt P49137); conditions: at 0.1 µM;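 further: figures are mean inhibition values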
Sequence (P49137 whole entry, looked up): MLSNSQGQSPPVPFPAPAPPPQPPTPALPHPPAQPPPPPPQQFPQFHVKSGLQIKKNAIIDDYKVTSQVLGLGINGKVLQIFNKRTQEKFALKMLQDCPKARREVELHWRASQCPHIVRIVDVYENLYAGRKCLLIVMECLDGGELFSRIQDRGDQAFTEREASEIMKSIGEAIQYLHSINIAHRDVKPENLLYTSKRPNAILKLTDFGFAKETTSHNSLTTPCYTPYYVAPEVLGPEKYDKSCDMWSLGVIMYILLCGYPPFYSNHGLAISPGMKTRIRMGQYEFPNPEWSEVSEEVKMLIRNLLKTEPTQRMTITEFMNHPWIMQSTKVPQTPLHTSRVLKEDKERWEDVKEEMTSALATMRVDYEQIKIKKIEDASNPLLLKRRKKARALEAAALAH
valueKind: inhibition
Hey, just the number and the unit after it is fine.

- smilesCode: "COc1ccc2ncn(-c3cc(O[C@H](C)c4ccccc4C(F)(F)F)c(C(N)=O)s3)c2c1"
  inhibition: "-0.39%"
- smilesCode: "CCn1c(-c2nonc2N)nc2cncc(C(=O)NCCNC)c21"
  inhibition: "2.34%"
- smilesCode: "NS(=O)(=O)c1ccc(N/N=C2\\C(=O)Nc3ccc(C(=O)NCc4ccncc4)cc32)cc1"
  inhibition: "2.73%"

Next item in the queue.
Qu. Quick one: inhibition of CN1CCC(n2cnc(-c3ccc(F)cc3)c2-c2ccnc(NCCO)n2)CC1 ?
Ans. 2.06%

---

Can you tell me inhibition for the items I'm about to list?
Biological target: Tyrosine-protein kinase JAK3 (Homo sapiens);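 further: values reported are mean percent inhibition of JAK3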
Sequence (whole entry): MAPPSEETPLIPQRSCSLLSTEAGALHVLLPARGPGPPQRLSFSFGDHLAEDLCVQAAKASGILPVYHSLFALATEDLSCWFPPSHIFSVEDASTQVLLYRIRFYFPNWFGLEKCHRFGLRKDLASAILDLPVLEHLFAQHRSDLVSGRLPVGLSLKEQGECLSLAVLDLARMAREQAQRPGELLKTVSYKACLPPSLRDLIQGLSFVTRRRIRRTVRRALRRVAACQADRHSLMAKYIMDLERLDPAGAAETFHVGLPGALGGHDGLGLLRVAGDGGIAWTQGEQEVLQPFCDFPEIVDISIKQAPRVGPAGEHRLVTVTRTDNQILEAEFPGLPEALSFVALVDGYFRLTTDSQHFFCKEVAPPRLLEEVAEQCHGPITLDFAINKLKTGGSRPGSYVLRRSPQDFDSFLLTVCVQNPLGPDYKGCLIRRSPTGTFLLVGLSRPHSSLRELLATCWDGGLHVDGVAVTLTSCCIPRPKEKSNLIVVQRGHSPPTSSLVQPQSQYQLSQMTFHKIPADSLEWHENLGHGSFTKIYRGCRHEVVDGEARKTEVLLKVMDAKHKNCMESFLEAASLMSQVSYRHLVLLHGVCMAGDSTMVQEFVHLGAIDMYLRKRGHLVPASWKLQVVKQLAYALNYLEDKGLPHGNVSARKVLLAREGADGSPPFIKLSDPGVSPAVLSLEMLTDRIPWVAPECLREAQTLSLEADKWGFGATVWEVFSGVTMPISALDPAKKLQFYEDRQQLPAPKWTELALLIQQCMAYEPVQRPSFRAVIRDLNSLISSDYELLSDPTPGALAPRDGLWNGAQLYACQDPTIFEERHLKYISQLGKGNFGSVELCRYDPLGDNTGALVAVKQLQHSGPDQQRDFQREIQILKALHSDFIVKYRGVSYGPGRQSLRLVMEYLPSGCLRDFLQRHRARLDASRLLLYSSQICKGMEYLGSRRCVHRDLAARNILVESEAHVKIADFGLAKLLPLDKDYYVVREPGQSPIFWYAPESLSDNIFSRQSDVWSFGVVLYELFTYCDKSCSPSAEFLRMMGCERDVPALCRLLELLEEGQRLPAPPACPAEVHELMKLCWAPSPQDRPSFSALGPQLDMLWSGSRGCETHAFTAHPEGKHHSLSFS
Conditions: at 0.1 µM
Answers are plain numbers, in %.

# annotated cases, reported inhibition shown
- smilesCode: "CNC(=O)c1sc(-n2cnc3cc(OC)c(OC)cc32)cc1OCc1ccccc1C(F)(F)F"
  inhibition [%]: -2.82
- smilesCode: "N#Cc1ccc2c(-c3ccnc(NC4CC4)n3)c(-c3ccc(F)cc3)nn2c1"
  inhibition [%]: -1.62
- smilesCode: "c1ccc(-c2n[nH]cc2-c2ccnc(-c3ccc(OCCn4ccnc4)cc3)c2)nc1"
  inhibition [%]: -0.46
- smilesCode: "NS(=O)(=O)c1ccc(N/N=C2\\C(=O)Nc3ccc(C(=O)NCc4ccncc4)cc32)cc1"
  inhibition [%]: -0.81
- smilesCode: "Cc1cc(O)cc(C)c1/C=C/c1cncc(C(N)=O)c1"
  inhibition [%]: -0.77
- smilesCode: "COc1c(C(N)=O)cc(-c2ccc(Cl)cc2)cc1-c1ccc(S(N)(=O)=O)cc1"
  inhibition [%]: 0.08
- smilesCode: "CCOc1ccc2c(-c3ccnc(Nc4cc(OC)cc(C(F)(F)F)c4)n3)cnn2n1"
  inhibition [%]: 0.66
- smilesCode: "COc1ccc(Nc2ncc(-c3ccccc3)o2)cc1OC"
  inhibition [%]: 0.88
- smilesCode: "COC(=O)Nc1nc2ccc(Oc3ccc(NC(=O)Nc4cc(C(F)(F)F)ccc4F)cc3)cc2s1"
  inhibition [%]: -0.26
- smilesCode: "OCCCNc1nccc(-c2c(-c3ccc(F)cc3)nn3cc(C(F)(F)F)ccc23)n1"
  inhibition [%]: 0.08

Hi, could you look up inhibition for each item in my list?
1. Fc1cccc(COc2ccc(Nc3ncncc3C#Cc3ccccc3)cc2Cl)c1
2. O=C(O[C@H]1CN[C@H](C#Cc2cc3ncnc(Nc4ccc(OCc5cccc(F)c5)c(Cl)c4)c3s2)C1)N1CCOCC1
3. COc1ccc2ncn(-c3cc(O[C@H](C)c4ccccc4C(F)(F)F)c(C(N)=O)s3)c2c1

Ans.
[-1.12, -0.56, 0.5]

Hi, could you look up inhibition for each item in my list?
1. COc1cc(N2CCN(C(C)C)CC2)ccc1Nc1nc(Nc2cccc3ncccc23)c2cc[nH]c2n1
2. CNC(=O)c1ncccc1Nc1nc(Nc2cc3c(cc2OC)CCCN3C(=O)CN(C)C)nc2[nH]ccc12

Ans.
1: 1.35; 2: 2.81

Qu. Quick one: inhibition of N#Cc1cccc(Nc2ncc(-c3ccccc3)o2)c1 ?
Ans. -1.06

---

Can you tell me inhibition for the items I'm about to list?
target: Serine/threonine-protein kinase Nek1 (Homo sapiens); details: at 1 µM
Description: GSK_PKIS: NEK1 mean inhibition at 1 uM [Nanosyn]
One number for each entry, in %.

# annotated cases, reported inhibition shown
- smilesCode: "c1cnn2ncc(-c3ccnc(NCCCN4CCOCC4)n3)c2c1"
  unitTag: "%"
  experimentalResult: 0.27
- smilesCode: "Cc1ccc(-c2cc3c(NC(=O)C4CC4)ncnc3o2)cc1"
  unitTag: "%"
  experimentalResult: 3.91
- smilesCode: "COc1cccc(-n2ncc3c(N/N=C/c4ccc(C(=O)NCCN(C)C)cc4)ncnc32)c1"
  unitTag: "%"
  experimentalResult: 7.24
- smilesCode: "CCOc1ccc2c(-c3ccnc(Nc4cc(OC)cc(C(F)(F)F)c4)n3)cnn2n1"
  unitTag: "%"
  experimentalResult: 2.42
- smilesCode: "CS(=O)(=O)CCNCc1ccoc1-c1ccc2ncnc(Nc3ccc(OCc4ccccc4)cc3)c2c1"
  unitTag: "%"
  experimentalResult: 2.1

Hi, could you look up inhibition for each item in my list?
1. COc1cc(N2CCN(C(C)C)CC2)ccc1Nc1nc(Nc2cccc3ncccc23)c2cc[nH]c2n1
2. O=C(O[C@H]1CN[C@H](C#Cc2cc3ncnc(Nc4ccc5c(cnn5Cc5ccccc5)c4)c3s2)C1)N1CCOCC1

Ans.
0.84
-0.05
